Biological target: T1, soluble cynomolgus GPNMB (recombinant extracellular domain) (cynomolgus, UniProt Q14956 23-499 (human entry), limits assumed)
T1 chain: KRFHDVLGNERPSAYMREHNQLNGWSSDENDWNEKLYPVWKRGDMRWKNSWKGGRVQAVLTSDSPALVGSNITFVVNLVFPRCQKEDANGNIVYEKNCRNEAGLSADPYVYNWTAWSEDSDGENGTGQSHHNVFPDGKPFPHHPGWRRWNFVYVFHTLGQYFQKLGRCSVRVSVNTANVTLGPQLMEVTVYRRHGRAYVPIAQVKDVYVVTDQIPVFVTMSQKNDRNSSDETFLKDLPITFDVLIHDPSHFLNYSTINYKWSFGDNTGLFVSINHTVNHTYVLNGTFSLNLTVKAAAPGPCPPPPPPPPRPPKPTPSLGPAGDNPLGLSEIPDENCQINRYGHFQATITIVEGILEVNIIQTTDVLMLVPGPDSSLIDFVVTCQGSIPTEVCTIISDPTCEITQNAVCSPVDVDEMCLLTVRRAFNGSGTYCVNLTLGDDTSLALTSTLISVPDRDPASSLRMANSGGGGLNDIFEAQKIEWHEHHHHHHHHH
Experiment: SPR Carterra, Ab immobilized
Item-by-item account of kon
# output: bare number, implied unit M⁻¹ s⁻¹

Would you please look over these solved cases?
Report kon, nothing else, for this binder: anti-GPNMB antibody GPN-01 (antibody, human IgG1, V domains shown, chimeric) VH: QVQLQQSGAELAKPGASVKLSCKASGYNFTNYCIHWVKQRPGQGLEWIGYINPSTGYTEYNQKFKDKATLTADKSSTTAYMQLSSLTSEDSAVYYCARGRYDEFTYWGQGTLVTVSA VL: DIVLTQSPASLAVSLGQRATISCRASKSVSTSTYSYMHWYQQKPGQPPKLLIYLASNLESGVPARFSGSGSGTDFTLNIHPVEEEDAATYYCQHSRELPPTFGGGTKLEIK
110000

Please list kon recorded for the binder anti-GPNMB antibody GPN-22 (antibody, human IgG1, V domains shown, chimeric) VH: QVQLQQPGAERVKPGASVKMSCKASGYTFTSYWITWVKQRPGQGLEWIGDIFPGSGSTNYHEKFKSKATLTVDTSSSTAYMQLSSLTSEDSAVYYCSRGYFGSSFSDYWGQGTSVTVSS VL: DIQMTQSPSSLSASLGERVSLTCRTSQEISGYLSWLQQKPDGTIKRLIYSTSTLDSGVPKRFSGSRSGSDYSLTISSLESEDFADYYCLQYASSPPTFGSGTKLEIK
32000

Let me know recorded kon for anti-GPNMB antibody GPN-09 (antibody, human IgG1, V domains shown, chimeric) VH: QVQLQQSGAELVKPGASVKLSCKASGYTFTSYYIYWVKQRPGQGLEWIGEINPSNGGTYFNEKFKNKATLTVDKSSSTAYMQLSSLTSEDSAVYYCTRGGNYYAYWGQGTLVTVSA VL: DIQMTQSPSSLSASLGERVSLTCRASQEISGHLGWLQQKPDGTIKRLIYAALTLDSGVPKRFSGSRSGSDYSLTISSLESEDFADYYCLQYASYPYTFGGGTKLEIK , thanks.
14000

Consider the record given below.
Please look at this binder and report its kon: anti-GPNMB antibody GPN-24 (antibody, human IgG1, V domains shown, chimeric) VH: QVQLQQPGAELVKPGASVKMSCKASGYTFTSYWITWVKQRPGQGLEWIGDIHPGSGRSNYNEKFKNKATLNVDTSSSTVYMQLSSLTSEDSAVYYCARDYLFAYWGQGTLVTVSA VL: DIQMTQSPSSLSASLGERVSLTCRASQEISGYLSWLQQKPDGTIKRLIYSTSTLDSGVPKRFSGSRSGSDYSLTISSLESEDFADYYCLQYTSSPPTFGGGTKLEIK
77000
